// pKi lookup, one value per entry
# system: Neuronal acetylcholine receptor; alpha3/alpha6/beta2/beta3 (Homo sapiens, UniProt P17787+P32297+Q05901+Q15825)
# Sequence (P17787 whole entry, one chain of several): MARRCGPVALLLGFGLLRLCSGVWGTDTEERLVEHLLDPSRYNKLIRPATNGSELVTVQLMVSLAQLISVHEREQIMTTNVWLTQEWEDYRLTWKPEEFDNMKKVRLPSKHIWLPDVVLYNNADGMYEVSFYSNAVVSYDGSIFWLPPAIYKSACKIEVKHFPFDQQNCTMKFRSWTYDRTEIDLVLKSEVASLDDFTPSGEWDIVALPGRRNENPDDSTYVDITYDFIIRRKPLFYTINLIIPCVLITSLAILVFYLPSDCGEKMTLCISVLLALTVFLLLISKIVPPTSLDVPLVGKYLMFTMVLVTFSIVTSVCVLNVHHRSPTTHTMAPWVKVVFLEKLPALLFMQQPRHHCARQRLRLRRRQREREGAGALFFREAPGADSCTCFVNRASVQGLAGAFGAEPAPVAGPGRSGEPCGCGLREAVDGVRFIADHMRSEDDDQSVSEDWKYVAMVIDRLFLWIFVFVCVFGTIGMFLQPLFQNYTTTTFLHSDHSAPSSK
# Sequence (Q15825 whole entry, one chain of several): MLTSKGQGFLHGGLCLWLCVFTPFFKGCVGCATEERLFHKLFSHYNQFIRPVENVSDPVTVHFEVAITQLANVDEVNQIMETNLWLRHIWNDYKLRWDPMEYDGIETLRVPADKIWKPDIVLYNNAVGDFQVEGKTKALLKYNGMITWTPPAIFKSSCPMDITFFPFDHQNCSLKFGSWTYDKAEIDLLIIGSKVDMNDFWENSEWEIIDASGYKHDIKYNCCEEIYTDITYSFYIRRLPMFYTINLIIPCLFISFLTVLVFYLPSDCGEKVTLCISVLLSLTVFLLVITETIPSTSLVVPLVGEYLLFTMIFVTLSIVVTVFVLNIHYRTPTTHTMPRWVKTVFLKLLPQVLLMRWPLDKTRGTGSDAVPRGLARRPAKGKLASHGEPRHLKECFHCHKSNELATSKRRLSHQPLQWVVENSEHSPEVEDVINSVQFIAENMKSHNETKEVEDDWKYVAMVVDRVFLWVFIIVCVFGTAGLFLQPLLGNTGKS
# Sequence (Q05901 whole entry, one chain of several): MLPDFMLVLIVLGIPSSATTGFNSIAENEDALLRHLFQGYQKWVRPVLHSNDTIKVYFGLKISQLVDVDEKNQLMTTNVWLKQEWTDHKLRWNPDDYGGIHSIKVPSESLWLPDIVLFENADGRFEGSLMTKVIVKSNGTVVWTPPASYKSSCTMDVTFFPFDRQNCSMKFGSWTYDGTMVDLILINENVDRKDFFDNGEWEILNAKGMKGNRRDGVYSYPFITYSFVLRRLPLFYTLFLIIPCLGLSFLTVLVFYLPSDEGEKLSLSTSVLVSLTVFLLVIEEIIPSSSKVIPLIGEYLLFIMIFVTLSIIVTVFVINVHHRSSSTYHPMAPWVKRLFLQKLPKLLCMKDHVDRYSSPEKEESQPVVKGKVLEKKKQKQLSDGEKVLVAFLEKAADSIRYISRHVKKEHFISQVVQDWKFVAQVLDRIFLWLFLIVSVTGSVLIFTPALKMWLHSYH
# test: Displacement of [3H]epibatidine from human alpha6/alpha3beta2beta3 nAChR expressed in HEK293T cells
// scale note: pKi = -log10(conc_M); give the bare number

The following molecules have reported results that may help.
CC(C)Oc1cncc(C2=CC3CNCC(C2)C3)c1 (configuration not stated) : 8.59
C1=C(c2cncc(Oc3ccccc3)c2)CC2CNCC1C2 (configuration not stated) : 8.32
C1=C(c2cccnc2)C[C@@H]2CNC[C@H]1C2 : 9.00
CN1C[C@@H]2C=C(c3cccnc3)C[C@@H](C2)C1 : 6.49
CC(C)Oc1cncc(C2=CC3CC(C2)CN(C)C3)c1 (configuration not stated) : 6.16
CN1C[C@H]2C=C(c3cccnc3)C[C@H](C2)C1 : 6.52

Query molecule follows.
*Q* Please report the measured pKi for `C1=C(c2cccnc2)C[C@H]2CNC[C@@H]1C2`
*A* 9.02

###

# system: Neuronal acetylcholine receptor; alpha4/beta2 (Homo sapiens, UniProt P17787+P43681)
# Sequence (P17787 whole entry): as the sequence (P17787 whole entry, one chain of several) above
# Sequence (P43681 whole entry): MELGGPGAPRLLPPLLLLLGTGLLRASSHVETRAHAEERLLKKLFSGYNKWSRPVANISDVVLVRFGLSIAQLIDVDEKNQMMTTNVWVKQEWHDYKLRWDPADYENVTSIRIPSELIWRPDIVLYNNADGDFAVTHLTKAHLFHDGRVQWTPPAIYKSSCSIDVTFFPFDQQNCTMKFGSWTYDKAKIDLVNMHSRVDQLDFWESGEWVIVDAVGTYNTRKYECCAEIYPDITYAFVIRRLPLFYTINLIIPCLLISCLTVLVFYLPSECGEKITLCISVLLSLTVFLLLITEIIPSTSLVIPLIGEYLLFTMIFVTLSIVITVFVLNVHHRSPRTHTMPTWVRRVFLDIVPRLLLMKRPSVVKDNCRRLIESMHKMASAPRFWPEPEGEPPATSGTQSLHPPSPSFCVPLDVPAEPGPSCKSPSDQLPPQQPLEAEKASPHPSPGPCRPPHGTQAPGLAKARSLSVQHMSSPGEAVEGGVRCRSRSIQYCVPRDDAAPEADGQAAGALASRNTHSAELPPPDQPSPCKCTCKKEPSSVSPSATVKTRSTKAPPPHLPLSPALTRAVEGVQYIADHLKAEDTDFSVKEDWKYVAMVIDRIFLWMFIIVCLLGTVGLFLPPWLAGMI
# test: Agonist activity at human alpha4beta2 nAChR low sensitivity form expressed in human SH-EP1 cells assessed as increase in calcium flux by FLIPR relative to 10 uM nicotine
# Type: functional, cell-based
// %max lookup, one value per entry
Give just the number in %; leave the unit off.

*Q* Write down measured %max (Neuronal acetylcholine receptor; alpha4/beta2 (Homo sapiens, UniProt P17787+P43681)) for this molecule. COc1ccc(C2=CC3CC(C2)CN(C)C3)cn1 (configuration not stated)
*A* 20

*Q* Write down measured %max (Neuronal acetylcholine receptor; alpha4/beta2 (Homo sapiens, UniProt P17787+P43681)) for this molecule. `C1=C(c2cccnc2)C[C@H]2CNC[C@@H]1C2`
*A* 129

*Q* Write down measured %max (Neuronal acetylcholine receptor; alpha4/beta2 (Homo sapiens, UniProt P17787+P43681)) for this molecule. Clc1ccc(C2=CC3CNCC(C2)C3)nn1 (configuration not stated)
*A* 160

*Q* Write down measured %max (Neuronal acetylcholine receptor; alpha4/beta2 (Homo sapiens, UniProt P17787+P43681)) for this molecule. CN1CC2C=C(c3ccc(F)nc3)CC(C2)C1 (configuration not stated)
*A* 9.4

*Q* Write down measured %max (Neuronal acetylcholine receptor; alpha4/beta2 (Homo sapiens, UniProt P17787+P43681)) for this molecule. CC(C)Oc1cncc(C2=CC3CC(C2)CN(C)C3)c1 (configuration not stated)
*A* 3.3

*Q* Write down measured %max (Neuronal acetylcholine receptor; alpha4/beta2 (Homo sapiens, UniProt P17787+P43681)) for this molecule. N#Cc1ccncc1C1=CC2CNCC(C1)C2 (configuration not stated)
*A* 27

*Q* Write down measured %max (Neuronal acetylcholine receptor; alpha4/beta2 (Homo sapiens, UniProt P17787+P43681)) for this molecule. `C1=C(c2cccnc2)C[C@@H]2CNC[C@H]1C2`
*A* 131

###

# system: Neuronal acetylcholine receptor subunit alpha-7 (Homo sapiens, UniProt P36544)
# Sequence (P36544 whole entry): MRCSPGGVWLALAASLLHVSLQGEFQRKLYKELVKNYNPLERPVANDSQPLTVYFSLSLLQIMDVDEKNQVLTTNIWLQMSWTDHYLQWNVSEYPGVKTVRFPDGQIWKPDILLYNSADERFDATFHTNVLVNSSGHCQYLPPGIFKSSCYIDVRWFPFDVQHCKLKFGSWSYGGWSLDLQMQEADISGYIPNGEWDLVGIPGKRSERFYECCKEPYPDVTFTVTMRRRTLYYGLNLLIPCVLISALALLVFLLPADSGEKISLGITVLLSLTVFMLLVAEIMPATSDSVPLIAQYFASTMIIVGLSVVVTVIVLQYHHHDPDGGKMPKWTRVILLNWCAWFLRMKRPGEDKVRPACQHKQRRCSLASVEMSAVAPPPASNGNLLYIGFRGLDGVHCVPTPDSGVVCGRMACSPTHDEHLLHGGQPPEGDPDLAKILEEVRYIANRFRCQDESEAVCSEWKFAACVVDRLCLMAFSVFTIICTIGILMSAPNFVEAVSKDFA
# test: Displacement of [3H]epibatidine from human alpha7 nAChR expressed in human HEK/RIC3 cells
Note to self: use t only for Ki readings below 30 nM; a reading exactly at 30 nM still gets f.

Clc1cccc(Oc2cncc(C3=CC4CNCC(C3)C4)c2)c1 (stereo unspecified) : t
CN1C[C@@H]2C=C(c3cccnc3)C[C@@H](C2)C1 : f
Clc1ccccc1Oc1cncc(C2=CC3CNCC(C2)C3)c1 (stereo unspecified) : f

*Q* Dear reviewer, please state whether COc1cncc(C2=CC3CC(C2)CN(C)C3)c1 (stereo unspecified) has Ki strictly beneath 30 nM.
*A* f

*Q* Dear reviewer, please state whether Clc1ccncc1C1=CC2CNCC(C1)C2 (stereo unspecified) has Ki strictly beneath 30 nM.
*A* f

*Q* Dear reviewer, please state whether C1=C(c2ccncc2)CC2CNCC1C2 (stereo unspecified) has Ki strictly beneath 30 nM.
*A* f

###

# system: Neuronal acetylcholine receptor; alpha3/beta4 (Homo sapiens, UniProt P30926+P32297)
# Sequence (P30926 whole entry): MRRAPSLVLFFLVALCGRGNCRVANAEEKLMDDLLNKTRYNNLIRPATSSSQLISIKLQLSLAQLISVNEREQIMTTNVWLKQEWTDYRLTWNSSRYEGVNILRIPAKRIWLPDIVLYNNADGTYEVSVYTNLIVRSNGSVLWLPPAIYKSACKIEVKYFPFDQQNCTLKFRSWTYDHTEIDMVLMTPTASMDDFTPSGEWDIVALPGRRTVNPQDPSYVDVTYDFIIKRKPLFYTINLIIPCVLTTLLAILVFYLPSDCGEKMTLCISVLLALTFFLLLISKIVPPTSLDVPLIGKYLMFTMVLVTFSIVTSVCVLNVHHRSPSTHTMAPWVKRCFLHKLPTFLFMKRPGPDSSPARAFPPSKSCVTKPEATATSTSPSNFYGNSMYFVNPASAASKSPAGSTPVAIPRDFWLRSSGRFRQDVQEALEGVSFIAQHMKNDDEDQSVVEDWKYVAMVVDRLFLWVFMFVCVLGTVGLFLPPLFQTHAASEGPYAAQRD
# Sequence (P32297 whole entry): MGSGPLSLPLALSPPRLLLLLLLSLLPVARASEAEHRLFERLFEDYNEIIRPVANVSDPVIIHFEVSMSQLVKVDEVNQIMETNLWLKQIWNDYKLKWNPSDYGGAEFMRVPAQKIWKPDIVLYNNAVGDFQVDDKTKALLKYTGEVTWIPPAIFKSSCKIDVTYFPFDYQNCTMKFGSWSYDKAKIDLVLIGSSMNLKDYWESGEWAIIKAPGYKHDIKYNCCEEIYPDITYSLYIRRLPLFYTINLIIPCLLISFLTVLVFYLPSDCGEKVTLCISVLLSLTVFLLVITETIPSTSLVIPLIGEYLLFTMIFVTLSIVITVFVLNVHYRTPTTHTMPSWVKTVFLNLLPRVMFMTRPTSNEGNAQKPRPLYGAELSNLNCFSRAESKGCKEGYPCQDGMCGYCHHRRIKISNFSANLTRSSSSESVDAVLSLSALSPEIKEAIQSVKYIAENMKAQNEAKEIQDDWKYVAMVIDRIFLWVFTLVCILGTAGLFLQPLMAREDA
# test: Agonist activity at human alpha3beta4 nAChR expressed in human SH-SY5Y cells assessed as increase in calcium flux by FLIPR
assay.readout: EC50 (nM)
Give just the number in nM; leave the unit off.

The following compounds have reported results that may help.
C1=C(c2cccnc2)C[C@@H]2CNC[C@H]1C2 : 73
Fc1cncc(C2=C[C@H]3CNC[C@@H](C2)C3)c1 : 155
COc1cncc(C2=CC3CC(C2)CN(C)C3)c1 (stereo not drawn) : 3640
Clc1ccc(C2=CC3CNCC(C2)C3)nn1 (stereo not drawn) : 149
Fc1cncc(C2=C[C@@H]3CNC[C@H](C2)C3)c1 : 111
C1=C(c2cncc(-c3ccccc3)c2)CC2CNCC1C2 (stereo not drawn) : 181

*Q* Please report the measured EC50 for Clc1ccc(C2=CC3CNCC(C2)C3)cn1 (stereo not drawn)
*A* 16

*Q* Please report the measured EC50 for COc1cncc(C2=CC3CNCC(C2)C3)c1 (stereo not drawn)
*A* 105

*Q* Please report the measured EC50 for CC(C)Oc1cncc(C2=CC3CNCC(C2)C3)c1 (stereo not drawn)
*A* 69

*Q* Please report the measured EC50 for Cc1ccc(C2=CC3CNCC(C2)C3)cn1 (stereo not drawn)
*A* 93

*Q* Please report the measured EC50 for N#Cc1ccncc1C1=CC2CNCC(C1)C2 (stereo not drawn)
*A* 166

###

# system: Neuronal acetylcholine receptor; alpha3/beta4 (Homo sapiens, UniProt P30926+P32297)
# test: Agonist activity at human alpha3beta4 nAChR expressed in human SH-SY5Y cells assessed as increase in calcium flux by FLIPR
assay.readout: pEC50
// scale note: pEC50 = -log10(conc_M); give the bare number

The following molecules have reported results that may help.
CN1CC2C=C(c3cncc(Oc4ccccc4)c3)CC(C2)C1 (configuration not stated) : 7.00
N#Cc1cncc(C2=C[C@H]3CNC[C@@H](C2)C3)c1 : 6.45
COc1ccc(C2=CC3CC(C2)CN(C)C3)cn1 (configuration not stated) : 5.72

*Q* Write down measured pEC50 (Neuronal acetylcholine receptor; alpha3/beta4 (Homo sapiens, UniProt P30926+P32297)) for this molecule. `C1=C(c2cccnc2)C[C@H]2CNC[C@@H]1C2`
*A* 7.43

*Q* Write down measured pEC50 (Neuronal acetylcholine receptor; alpha3/beta4 (Homo sapiens, UniProt P30926+P32297)) for this molecule. Clc1ccncc1C1=CC2CNCC(C1)C2 (configuration not stated)
*A* 6.42

*Q* Write down measured pEC50 (Neuronal acetylcholine receptor; alpha3/beta4 (Homo sapiens, UniProt P30926+P32297)) for this molecule. C1=C(c2cncnc2)CC2CNCC1C2 (configuration not stated)
*A* 6.70

###

# system: Neuronal acetylcholine receptor; alpha4/beta2 (Rattus norvegicus, UniProt P09483+P12390)
# Sequence (P09483 whole entry): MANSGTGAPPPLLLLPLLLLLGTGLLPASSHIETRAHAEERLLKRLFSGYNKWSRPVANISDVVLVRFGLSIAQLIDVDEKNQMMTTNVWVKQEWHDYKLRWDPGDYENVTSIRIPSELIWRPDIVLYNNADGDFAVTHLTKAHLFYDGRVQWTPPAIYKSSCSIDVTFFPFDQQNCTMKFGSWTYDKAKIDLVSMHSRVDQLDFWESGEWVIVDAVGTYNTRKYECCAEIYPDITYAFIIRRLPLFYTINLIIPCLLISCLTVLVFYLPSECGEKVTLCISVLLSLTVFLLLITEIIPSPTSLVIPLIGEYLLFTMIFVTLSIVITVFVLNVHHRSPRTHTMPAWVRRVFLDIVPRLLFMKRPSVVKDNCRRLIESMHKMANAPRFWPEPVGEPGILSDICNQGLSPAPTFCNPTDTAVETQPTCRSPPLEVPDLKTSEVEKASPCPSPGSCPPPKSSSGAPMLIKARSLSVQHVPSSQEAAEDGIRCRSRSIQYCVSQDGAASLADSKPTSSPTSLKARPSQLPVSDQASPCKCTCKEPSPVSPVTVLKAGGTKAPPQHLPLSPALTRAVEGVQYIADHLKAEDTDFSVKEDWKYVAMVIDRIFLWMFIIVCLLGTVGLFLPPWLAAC
# Sequence (P12390 whole entry): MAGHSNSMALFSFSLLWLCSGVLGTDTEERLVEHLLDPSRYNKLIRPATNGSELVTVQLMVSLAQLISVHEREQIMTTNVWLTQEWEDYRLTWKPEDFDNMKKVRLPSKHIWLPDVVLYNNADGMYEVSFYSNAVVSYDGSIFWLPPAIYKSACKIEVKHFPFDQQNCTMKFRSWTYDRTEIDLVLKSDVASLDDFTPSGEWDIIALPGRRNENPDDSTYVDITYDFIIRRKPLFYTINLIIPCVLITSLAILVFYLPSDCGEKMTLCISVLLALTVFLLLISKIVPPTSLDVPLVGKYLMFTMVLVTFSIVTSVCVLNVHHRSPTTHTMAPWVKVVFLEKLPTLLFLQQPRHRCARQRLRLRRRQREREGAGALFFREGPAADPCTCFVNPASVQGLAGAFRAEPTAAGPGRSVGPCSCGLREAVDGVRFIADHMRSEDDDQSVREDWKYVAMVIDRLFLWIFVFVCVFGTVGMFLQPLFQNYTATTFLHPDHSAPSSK
# test: Binding affinity to rat alpha4beta2 nAChR
assay.readout: Ki (nM)
Give just the number in nM; leave the unit off.

*Q* Please report the measured Ki for `O=c1cccc2n1C[C@@H]1CNC[C@H]2C1`
*A* 1

###

// Ki lookup, one value per entry
# system: Neuronal acetylcholine receptor; alpha4/beta2 (Homo sapiens, UniProt P17787+P43681)
# test: Displacement of [3H]nicotine from human alpha4beta2 nAChR expressed in human SH-EP1 cells
Give just the number in nM; leave the unit off.

*Q* Please report the measured Ki for CN1CC2C=C(c3cncc(Oc4ccccc4)c3)CC(C2)C1 (stereo not drawn)
*A* 1.3

*Q* Please report the measured Ki for Clc1ccccc1Oc1cncc(C2=CC3CNCC(C2)C3)c1 (stereo not drawn)
*A* 0.9

*Q* Please report the measured Ki for Clc1cncc(C2=CC3CNCC(C2)C3)c1 (stereo not drawn)
*A* 0.4

*Q* Please report the measured Ki for C1=C(c2cnccn2)CC2CNCC1C2 (stereo not drawn)
*A* 1.1

###

// pEC50 lookup, one value per entry
# system: Neuronal acetylcholine receptor; alpha4/beta2 (Homo sapiens, UniProt P17787+P43681)
# test: Agonist activity at human alpha4beta2 nAChR high sensitivity form expressed in human SH-EP1 cells assessed as increase in calcium flux by FLIPR
# Format: functional, cell-based
// scale note: pEC50 = -log10(conc_M); give the bare number

*Q* Please report the measured pEC50 for Cc1ccc(C2=CC3CNCC(C2)C3)cn1 (stereo not drawn)
*A* 7.12

*Q* Please report the measured pEC50 for `Fc1cncc(C2=C[C@H]3CNC[C@@H](C2)C3)c1`
*A* 7.54

###

# system: Neuronal acetylcholine receptor; alpha3/beta4 (Homo sapiens, UniProt P30926+P32297)
# test: Displacement of [3H]epibatidine from human alpha3beta4 nAChR expressed in human SH-SY5Y cells
assay.readout: log10(Ki) (log10 of the value in µM)
# log10 transformed; quantity=Ki; unit=µM

*Q* Please report the measured log10(Ki) for FC(F)(F)c1cncc(C2=CC3CNCC(C2)C3)c1 (stereo not drawn)
*A* -1.10

*Q* Please report the measured log10(Ki) for Fc1ccc(C2=CC3CNCC(C2)C3)cn1 (stereo not drawn)
*A* -1.55

*Q* Please report the measured log10(Ki) for C1=C(c2ccncc2)CC2CNCC1C2 (stereo not drawn)
*A* -0.34

*Q* Please report the measured log10(Ki) for `N#Cc1cncc(C2=C[C@H]3CNC[C@@H](C2)C3)c1`
*A* -1.82

Reference for the values: ChEMBL document CHEMBL2176949
